system: monoclonal antibody D32.39; settings: truncated dynorphin peptides, surface-immobilized, N-acetylated, linked via C-terminal amide; D32.39 10 μg/ml 2 hours; ± SD of min. four replicates; […]

{"substance": "RRQFKVV", "tested.system": "monoclonal antibody D32.39", "uom": "%", "Normalized Intensity (%)": 58}
{"substance": "FLRRQFKV", "tested.system": "monoclonal antibody D32.39", "uom": "%", "Normalized Intensity (%)": 14}
{"substance": "FLRRQF", "tested.system": "monoclonal antibody D32.39", "uom": "%", "Normalized Intensity (%)": 8}
{"substance": "RRQFKVVT", "tested.system": "monoclonal antibody D32.39", "uom": "%", "Normalized Intensity (%)": 99}
{"substance": "LRRQFK", "tested.system": "monoclonal antibody D32.39", "uom": "%", "Normalized Intensity (%)": 12}
{"substance": "FLRRQFKVVT", "tested.system": "monoclonal antibody D32.39", "uom": "%", "Normalized Intensity (%)": 98}
{"substance": "FLRRQFKVV", "tested.system": "monoclonal antibody D32.39", "uom": "%", "Normalized Intensity (%)": 37}
{"substance": "RQFKVV", "tested.system": "monoclonal antibody D32.39", "uom": "%", "Normalized Intensity (%)": 54}
{"substance": "LRRQFKVVT", "tested.system": "monoclonal antibody D32.39", "uom": "%", "Normalized Intensity (%)": 87}
{"substance": "RRQFKV", "tested.system": "monoclonal antibody D32.39", "uom": "%", "Normalized Intensity (%)": 16}
{"substance": "LRRQFKVV", "tested.system": "monoclonal antibody D32.39", "uom": "%", "Normalized Intensity (%)": 44}
{"substance": "QFKVVT", "tested.system": "monoclonal antibody D32.39", "uom": "%", "Normalized Intensity (%)": 28}
{"substance": "LRRQFKV", "tested.system": "monoclonal antibody D32.39", "uom": "%", "Normalized Intensity (%)": 16}
{"substance": "FLRRQFK", "tested.system": "monoclonal antibody D32.39", "uom": "%", "Normalized Intensity (%)": 10}
{"substance": "RQFKVVT", "tested.system": "monoclonal antibody D32.39", "uom": "%", "Normalized Intensity (%)": 99}

* * *

system: monoclonal antibody D32.39; details: relative fluorescence intensity of the corresponding surface-immobilized peptide (N-acetylated, C-terminal amide link to surface)
Consider the following substances and their measured Normalized Intensity (%) readings.

{"substance": "Ac-RRQFKVVT-OH", "Normalized Intensity (%)": 99}
{"substance": "Ac-FLRRQFKVVT-OH", "Normalized Intensity (%)": 98}
{"substance": "Ac-QFKVVT-OH [Ac-QFKVVT-OH]", "Normalized Intensity (%)": 28}
{"substance": "Ac-RQFKVVT-OH [Ac-RQFKVVT-OH]", "Normalized Intensity (%)": 99}
